Target: human CB2 (Homo sapiens, UniProt P34972)
Construct: expressed in transfected cells; host or cells: HEK-293T (transient transfection, membrane preparation)
Sequence (P34972 whole entry): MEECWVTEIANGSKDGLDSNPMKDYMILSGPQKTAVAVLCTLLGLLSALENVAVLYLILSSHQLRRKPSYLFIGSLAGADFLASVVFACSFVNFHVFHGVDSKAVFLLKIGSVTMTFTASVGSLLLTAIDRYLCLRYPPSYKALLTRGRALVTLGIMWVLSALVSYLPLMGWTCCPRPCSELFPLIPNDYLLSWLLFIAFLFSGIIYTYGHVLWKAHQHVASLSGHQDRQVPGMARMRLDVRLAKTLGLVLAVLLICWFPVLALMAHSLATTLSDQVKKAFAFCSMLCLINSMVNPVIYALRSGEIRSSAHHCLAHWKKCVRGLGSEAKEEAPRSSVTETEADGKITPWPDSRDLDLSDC
Assay: CB2 receptor binding assay, block of [3H]-CP 55,940 binding
Details: membranes of HEK-293T cells transfected with human CB2 cDNA; 1.5 nM [3H]-CP 55,940
// false strictly below 7 in pKi; true otherwise

As a guide, the following entries are already answered.
Determine whether measured pKi meets or exceeds 7 for COc1cccc(OC)c1-c1nc2ccccn2c1Nc1ccc2c(c1)OCCO2 [CR-116]
false

Entry to check: Fc1cccc(Cl)c1-c1nc2cccc(C(F)(F)F)n2c1Nc1ccc2c(c1)OCCO2 [CR-122]
false

Here is the next compound: COc1cccc2nc(-c3c(F)cc(O)cc3F)c(Nc3ccc4c(c3)OCCO4)n12 [CR-15]
true

Now try Cc1ccc2nc(-c3c(Cl)cccc3Cl)c(Nc3ccc4c(c3)OCCO4)n2c1 [CR-39] .
true

Okay, and COc1cccc(F)c1-c1nc2ncccn2c1Nc1ccc2c(c1)OCCO2 [CR-112] ?
false

Others:
Check this compound for pKi at or above 7: Fc1cccc(Cl)c1-c1nc2ncccn2c1Nc1ccc2c(c1)OCCO2 [CR-46]
true

Note, next up: COc1ccc2nc(-c3c(F)ccc(OCF)c3Cl)c(Nc3ccc4c(c3)OCCO4)n2c1 [CR-16]
true
